conditions: in 2-butanone, 305.65 K
Metric: solubility (mole fraction)
The answer should be a number; do not append a unit.

Note to self: solubility (mole fraction) recorded for `O=S(=O)(c1ccc(O)cc1)c1ccccc1O` was 0.125

* * *

conditions: in 2-butanone, 293.15 K
Metric: solubility (mole fraction)
Format: numeric value only, no unit, no commentary.

Recorded result, `O=S(=O)(c1ccc(O)cc1)c1ccccc1O` , solubility (mole fraction): 0.113

* * *

conditions: in isopropanol, 298.15 K
Metric: solubility (mole fraction)
# answer = number (no unit)

Noted for `O=S(=O)(c1ccc(O)cc1)c1ccccc1O` : its solubility (mole fraction) reads 0.089

* * *

details: in ethyl acetate, 290.65 K
Metric: solubility (mole fraction)
API doc: respond with a numeric literal and nothing else, no unit.

// solubility (mole fraction) lookup, compound = `O=S(=O)(c1ccc(O)cc1)c1ccccc1O` , result: 0.0465

* * *

settings: in methanol, 300.65 K
Metric: solubility (mole fraction)
Give only the figure.

Memo: `O=S(=O)(c1ccc(O)cc1)c1ccccc1O` , reported solubility (mole fraction): 0.0716

* * *

conditions: in 1,4-dioxane, 295.65 K
Metric: solubility (mole fraction)

Noted for `O=S(=O)(c1ccc(O)cc1)c1ccccc1O` : its solubility (mole fraction) reads 0.0415

* * *

details: in ethyl acetate, 303.15 K
Metric: solubility (mole fraction)
When you answer, write just the number.

The compound `O=S(=O)(c1ccc(O)cc1)c1ccccc1O` showed solubility (mole fraction) equal to 0.0562

* * *

settings: in ethanol, 300.65 K
Metric: solubility (mole fraction)
Number only, no unit.

Item: `O=S(=O)(c1ccc(O)cc1)c1ccccc1O` | solubility (mole fraction): 0.0827

* * *

conditions: in 1,4-dioxane, 303.15 K
Metric: solubility (mole fraction)
Number, no unit, nothing else.

// solubility (mole fraction) value for `O=S(=O)(c1ccc(O)cc1)c1ccccc1O` : 0.0557

* * *

conditions: in ethanol, 290.65 K
Metric: solubility (mole fraction)
The reply should be a number, written without any unit.

solubility (mole fraction) measured on `O=S(=O)(c1ccc(O)cc1)c1ccccc1O` = 0.0746

* * *

settings: in ethanol, 295.65 K
Metric: solubility (mole fraction)
# print the numeric value only

compound `O=S(=O)(c1ccc(O)cc1)c1ccccc1O` , solubility (mole fraction) observed: 0.0785

* * *

settings: in methanol, 298.15 K
Metric: solubility (mole fraction)
API note: the answer field is a bare number with no unit suffix.

Lab note: `O=S(=O)(c1ccc(O)cc1)c1ccccc1O` gave solubility (mole fraction) of 0.0696

* * *

conditions: in ethyl acetate, 293.15 K
Metric: solubility (mole fraction)

For record `O=S(=O)(c1ccc(O)cc1)c1ccccc1O` the listed solubility (mole fraction) is 0.0482

* * *

conditions: in acetonitrile, 303.15 K
Metric: solubility (mole fraction)
Respond with the number and no other words.

Kindly note the recorded solubility (mole fraction) for `O=S(=O)(c1ccc(O)cc1)c1ccccc1O` , which is 0.0219

* * *

details: in methanol, 295.65 K
Metric: solubility (mole fraction)
Answer field: number only, no words.

Looking up `O=S(=O)(c1ccc(O)cc1)c1ccccc1O` , I found its solubility (mole fraction) recorded as 0.0677

* * *

settings: in ethyl acetate, 283.15 K
Metric: solubility (mole fraction)

The compound identified as `O=S(=O)(c1ccc(O)cc1)c1ccccc1O` registered its solubility (mole fraction) at 0.0415
